target: FGFR1 (UniProt P11362); experiment: phosphorylation enrichment, bacterial display (enrichment ratio); higher = better substrate or ligand; peptides without Tyr show the background;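 note: 11-residue human phosphosite peptides and single-mutation variants displayed on the E. coli surface, counted by deep sequencing, each peptide's frequency after selection divided by its frequency in the unselected input library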;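 note: frequency after pTyr selection over input frequency; kinase dosed for 20-30% of maximal phosphorylation in three min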
Sequence (P11362 whole entry, looked up): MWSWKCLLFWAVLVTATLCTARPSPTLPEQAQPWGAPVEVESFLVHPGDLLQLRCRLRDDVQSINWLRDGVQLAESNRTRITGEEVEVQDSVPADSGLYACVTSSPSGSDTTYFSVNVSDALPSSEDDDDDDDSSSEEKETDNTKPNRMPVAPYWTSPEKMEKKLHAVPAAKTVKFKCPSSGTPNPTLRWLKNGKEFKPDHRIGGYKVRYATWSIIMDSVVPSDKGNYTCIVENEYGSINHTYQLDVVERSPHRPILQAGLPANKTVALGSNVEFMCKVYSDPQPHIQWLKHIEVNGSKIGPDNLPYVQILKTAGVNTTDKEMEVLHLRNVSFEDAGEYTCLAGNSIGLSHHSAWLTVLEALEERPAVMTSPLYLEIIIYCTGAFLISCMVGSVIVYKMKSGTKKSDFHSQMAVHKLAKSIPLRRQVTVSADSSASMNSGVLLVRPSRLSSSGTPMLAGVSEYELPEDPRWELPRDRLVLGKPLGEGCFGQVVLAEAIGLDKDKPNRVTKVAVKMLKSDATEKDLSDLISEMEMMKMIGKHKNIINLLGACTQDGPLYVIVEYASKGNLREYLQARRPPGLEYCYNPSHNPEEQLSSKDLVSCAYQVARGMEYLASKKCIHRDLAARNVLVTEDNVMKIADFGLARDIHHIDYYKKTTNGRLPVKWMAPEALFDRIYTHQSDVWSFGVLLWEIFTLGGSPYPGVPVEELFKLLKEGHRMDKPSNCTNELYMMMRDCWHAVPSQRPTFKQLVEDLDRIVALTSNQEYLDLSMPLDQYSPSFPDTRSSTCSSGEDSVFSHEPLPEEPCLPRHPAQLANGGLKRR
Hi, to clarify the labels: fulfilled covers phosphorylation enrichment from 0.6 upward, not fulfilled covers anything below 0.6.

Request: Is it the case that LEFGDYHPLKP [VPS35L_Y32] has phosphorylation enrichment reaching or exceeding 0.6?
Result: fulfilled

Request: Is it the case that HNLDYYKMTTN [FGFR3_Y648_K650M] has phosphorylation enrichment reaching or exceeding 0.6?
Result: fulfilled

Request: Is it the case that AVISVYDLVAV [PSEN1_Y256] has phosphorylation enrichment reaching or exceeding 0.6?
Result: not fulfilled

Request: Is it the case that MKKKTYAMGGG [GAN_Y424_I423T] has phosphorylation enrichment reaching or exceeding 0.6?
Result: fulfilled

Request: Is it the case that KVITDYYVDMK [MPP4_Y566] has phosphorylation enrichment reaching or exceeding 0.6?
Result: fulfilled

Request: Is it the case that PFTRNYFVRAV [CYBA_Y87_YF] has phosphorylation enrichment reaching or exceeding 0.6?
Result: fulfilled

Request: Is it the case that DGTGHYLGNAC [GATA5_Y208_C210G] has phosphorylation enrichment reaching or exceeding 0.6?
Result: not fulfilled

Request: Is it the case that FPLELYERVRI [PRKCG_Y312_M317I_YF] has phosphorylation enrichment reaching or exceeding 0.6?
Result: not fulfilled

Request: Is it the case that TLDTDYQMTKR [ADA_Y308] has phosphorylation enrichment reaching or exceeding 0.6?
Result: not fulfilled

Request: Is it the case that AVHPGYGFLSE [PCCA_Y143] has phosphorylation enrichment reaching or exceeding 0.6?
Result: fulfilled

Request: Is it the case that EIRTQYEVMAS [GFAP_Y242_A244V] has phosphorylation enrichment reaching or exceeding 0.6?
Result: not fulfilled

Request: Is it the case that QLCVSYPGGFT [PROS1_Y259_N258S_YF] has phosphorylation enrichment reaching or exceeding 0.6?
Result: not fulfilled

Request: Is it the case that DWLRRYLENGK [HLA-A_Y195_E190D] has phosphorylation enrichment reaching or exceeding 0.6?
Result: fulfilled

Request: Is it the case that WVFNHYRCIIW [BRCA2_Y2624_W2626C_YF] has phosphorylation enrichment reaching or exceeding 0.6?
Result: not fulfilled

Request: Is it the case that SCTFTCLLGDR [ETHE1_Y38_Y38C] has phosphorylation enrichment reaching or exceeding 0.6?
Result: not fulfilled

Request: Is it the case that RFFTTYDTNGR [CLCA1_Y665_YF] has phosphorylation enrichment reaching or exceeding 0.6?
Result: fulfilled

Request: Is it the case that GPIEVYLCPEE [E2F3_Y349] has phosphorylation enrichment reaching or exceeding 0.6?
Result: not fulfilled

Request: Is it the case that WGTPEYDSVVA [MAP1A_Y1883_A1881P] has phosphorylation enrichment reaching or exceeding 0.6?
Result: not fulfilled

Request: Is it the case that FARNSYVAGQF [G6PD_Y107_YF] has phosphorylation enrichment reaching or exceeding 0.6?
Result: not fulfilled

Request: Is it the case that RYVTRSIYNRE [HLA-DQB1_Y62_Y62S] has phosphorylation enrichment reaching or exceeding 0.6?
Result: fulfilled

Request: Is it the case that EPYELYCEMGS [CBL_Y371_Q367P] has phosphorylation enrichment reaching or exceeding 0.6?
Result: fulfilled

Request: Is it the case that ATPKGYETDAS [OTC_Y223_P225T] has phosphorylation enrichment reaching or exceeding 0.6?
Result: not fulfilled

Request: Is it the case that GGQEDYDRLRP [RAC3_Y64_A59G] has phosphorylation enrichment reaching or exceeding 0.6?
Result: not fulfilled

Request: Is it the case that EEEPVYEAEPE [HCLS1_Y360] has phosphorylation enrichment reaching or exceeding 0.6?
Result: fulfilled

Request: Is it the case that DEWFLYKMRDI [CPS1_Y879_K875E] has phosphorylation enrichment reaching or exceeding 0.6?
Result: not fulfilled

Request: Is it the case that PVDTYYDSTRG [DYNC2H1_Y2231_M2227V] has phosphorylation enrichment reaching or exceeding 0.6?
Result: fulfilled

Request: Is it the case that KLPYPYDDPFS [GPX2_Y127] has phosphorylation enrichment reaching or exceeding 0.6?
Result: not fulfilled

Request: Is it the case that PLQKIYNFNVL [SLC4A1_Y553_T552I_YF] has phosphorylation enrichment reaching or exceeding 0.6?
Result: fulfilled

Request: Is it the case that DESEDYRDTVV [CNNM3_Y456] has phosphorylation enrichment reaching or exceeding 0.6?
Result: fulfilled

Request: Is it the case that LHSEAYLKYNE [PBRM1_Y1610_I1614N] has phosphorylation enrichment reaching or exceeding 0.6?
Result: not fulfilled

Request: Is it the case that EQPNPYMVLDI [ROCK2_Y1197_S1194P] has phosphorylation enrichment reaching or exceeding 0.6?
Result: fulfilled

Request: Is it the case that RKKEEYKMALF [F8_Y1990_YF] has phosphorylation enrichment reaching or exceeding 0.6?
Result: not fulfilled

Request: Is it the case that DEEYEYMNRRR [ERBB3_Y1199] has phosphorylation enrichment reaching or exceeding 0.6?
Result: not fulfilled
